The measured values listed here are drawn from patent US7781454B2.

# Study target: HIV-1 RT enzyme (wild-type) (Human immunodeficiency virus type 1 group M subtype B, UniProt P04585)
pIC50: −log10 of the molar value. Where a name gives a salt, the structure may show the parent alone.
Outcome: Condition met for pIC50 of at least 8; Condition not met for anything lower.

Example entries begin here.
In [3]: df
Out[3]:
                                   compound              class
0  N#Cc1cc(Cl)cc(Oc2c(Cl)ccc3nn(Cc4nnc(-c5ccccc5)o4)nc23)c1 [Example 24]  Condition not met
1  N#Cc1cc(Cl)cc(Oc2c(Cl)ccc3c2nnn3CC(=O)c2cccnc2)c1 [Example 11]  Condition not met
2  N#Cc1cc(Cl)cc(Oc2c(Cl)ccc3c2ncn3Cc2n[nH]c3nc(N)ccc23)c1 [Example 10, bis(trifluoroacetate)]      Condition met

Enquiry: Check the entry N#Cc1cc(Cl)cc(Oc2c(Cl)ccc3c2nnn3Cc2n[nH]c3ncccc23)c1Cl [Example 19] : does pIC50 equal or exceed 8?
Return: Condition met

Enquiry: Check the entry N#Cc1cc(Cl)cc(Oc2c(Cl)ccc3c2cnn3Cc2n[nH]c3nc(N)ccc23)c1 [Example 3] : does pIC50 equal or exceed 8?
Return: Condition met

Enquiry: Check the entry Cc1ccn2c(Cc3n[nH]c4ncccc34)nnc2c1Oc1cc(Cl)cc(C#N)c1 [Example 26, trifluoroacetate] : does pIC50 equal or exceed 8?
Return: Condition not met

Enquiry: Check the entry N#Cc1cc(Cl)cc(Oc2c(Cl)ccc3c2cnn3Cc2n[nH]c3c2ccc[n+]3[O-])c1 [Example 5] : does pIC50 equal or exceed 8?
Return: Condition met

Enquiry: Check the entry N#Cc1cc(Cl)cc(Oc2c(Cl)ccc3c2nnn3CC(=O)N2CCCC(C(N)=O)C2)c1 (centres unmarked) [Example 16] : does pIC50 equal or exceed 8?
Return: Condition not met

* * *

# Study target: mutant HIV reverse transcriptase (Y181C mutation) (Human immunodeficiency virus type 1 group M subtype B, UniProt P04585, Y768C)
# Construct: against mutant HIV reverse transcriptase; made in house
# Method summary: ECL assay for inhibition of mutant HIV reverse transcriptase (Y181C)
# Format: biochemical
Where a name gives a salt, the structure may show the parent alone.
Readout name: IC50 (µM)
The reply should contain only the number, in µM.

For orientation, consider the following solved cases.
                                   compound  readout_name  test_value
0  NCc1cc(Cl)cc(Oc2c(Cl)ccc3c2nnn3Cc2n[nH]c3ncccc23)c1 [Example 17, trifluoroacetate]          IC50       0.074
1  Cc1ccn2c(Cc3n[nH]c4ncccc34)ncc2c1Oc1cc(Cl)cc(C#N)c1 [Example 25, trifluoroacetate]          IC50       0.033
2  N#Cc1cc(Cl)cc(Oc2c(Cl)ccc3c2ncn3Cc2n[nH]c3ncccc23)c1 [Example 7, dihydrochloride]          IC50      0.0017
3  Cc1ccn2c(Cc3n[nH]c4ncccc34)nnc2c1Oc1cc(Cl)cc(C#N)c1 [Example 26, trifluoroacetate]          IC50         1.2

Enquiry: Reported IC50 for N#Cc1cc(Cl)cc(Oc2c(Cl)ccc3c2ncn3Cc2n[nH]c3nc(N)ccc23)c1 [Example 10, bis(trifluoroacetate)] : what is it?
Return: 0.013

* * *

Reported IC50 values follow for various compounds
# Study target: mutant HIV reverse transcriptase (K103N mutation) (Human immunodeficiency virus type 1 group M subtype B, UniProt P04585, K690N)
# Construct: against mutant HIV reverse transcriptase; made in house
# Method summary: ECL assay for inhibition of mutant HIV reverse transcriptase (K103N)
# Type: biochemical
# Condition context: K103N mutant RT; read-out: ECL Assay (K103N) IC50
# Experimental: 100 μL reaction mixtures were initiated with a combination of primer-template substrate ([…]) and dNTPs (0.6 μM dNTPs, 1.25 μM BrdUTP). […] A mixture of detection buffer containing ruthenylated anti-BrdU antibody and streptavidin coated magnetic beads were added to the plate and incubated at room temperature for 1.5 hours prior to quantification via electrochemiluminescence instrument. […]
The reply should contain only the number, in nM.

For orientation, consider the following solved cases.
>>> df
                  compound_structure_string  readout_name  unit_symbol  test_value
0  N#Cc1cc(Cl)cc(Oc2c(Cl)ccc3c2nnn3Cc2n[nH]c3nc(N)ccc23)c1Cl          IC50           nM         0.8
1  N#Cc1cc(Cl)cc(Oc2c(Cl)ccc3c2cnn3Cc2n[nH]c3ncccc23)c1          IC50           nM        0.57
2  N#Cc1cc(C#N)cc(Oc2c(Cl)ccc3c2nnn3Cc2n[nH]c3ncccc23)c1          IC50           nM         1.4

Enquiry: Reported IC50 for O=Cc1cc(Cl)cc(Oc2c(Cl)ccc3c2nnn3Cc2n[nH]c3ncccc23)c1 : what is it?
Return: 2.6

Enquiry: Reported IC50 for N#Cc1cc(Cl)cc(Oc2c(Cl)ccc3c2nnn3CC(=O)c2cccnc2)c1 : what is it?
Return: 52

Enquiry: Reported IC50 for N#Cc1cc(Cl)cc(Oc2c(Cl)ccc3nn(Cc4nnc(-c5ccccc5)o4)nc23)c1 : what is it?
Return: 150

Enquiry: Reported IC50 for CN(Cc1ccccc1Cl)C(=O)Cn1nnc2c(Oc3cc(Cl)cc(C#N)c3)c(Cl)ccc21 : what is it?
Return: 74

Enquiry: Reported IC50 for N#Cc1cc(Cl)cc(Oc2c(Cl)ccc3c2cnn3Cc2n[nH]c3c2ccc[n+]3[O-])c1 : what is it?
Return: 1.3

* * *

# Study target: mutant HIV reverse transcriptase (Y181C mutation) (Human immunodeficiency virus type 1 group M subtype B, UniProt P04585, Y768C)
# Construct: against mutant HIV reverse transcriptase; made in house
# Method summary: ECL assay for inhibition of mutant HIV reverse transcriptase (Y181C)
# Format: biochemical
# Condition context: Y181C mutant RT; read-out: ECL Assay (Y181C) IC50
Readout name: pIC50
FYI, pIC50 means -log10 of a concentration in mol per litre.

For orientation, consider the following solved cases.
In [3]: df
Out[3]:
                  compound_structure_string  test_value
0  N#Cc1cc(Cl)cc(Oc2c(Cl)ccc3c2cnn3Cc2n[nH]c3ncccc23)c1        9.22
1  N#Cc1cc(Cl)cc(Oc2c(Cl)ccc3c2nnn3CC(=O)c2cccnc2)c1        7.52
2  N#Cc1cc(Cl)cc(Oc2c(Cl)ccc3nn(Cc4nnc(-c5ccccc5)o4)nc23)c1        7.33

Enquiry: Reported pIC50 for N#Cc1cc(Cl)cc(Oc2c(Cl)ccc3c2nnn3Cc2n[nH]c3nc(N)ccc23)c1 : what is it?
Return: 9.09

Enquiry: Reported pIC50 for N#Cc1cc(Cl)cc(Oc2c(Cl)ccc3c2cnn3Cc2n[nH]c3nc(N)ccc23)c1 : what is it?
Return: 8.72

Enquiry: Reported pIC50 for N#Cc1cc(Cl)cc(Oc2c(Cl)ccc3c2nnn3CC(=O)Nc2ccccc2Cl)c1 : what is it?
Return: 9.05

* * *

# Study target: mutant HIV reverse transcriptase (K103N mutation) (Human immunodeficiency virus type 1 group M subtype B, UniProt P04585, K690N)
# Construct: against mutant HIV reverse transcriptase; made in house
# Method summary: ECL assay for inhibition of mutant HIV reverse transcriptase (K103N)
# Assay type: biochemical
# Condition context: K103N mutant RT; read-out: ECL Assay (K103N) IC50
Reported pIC50 values follow for various molecules
FYI, pIC50 means -log10 of a concentration in mol per litre.

For orientation, consider the following solved cases.
>>> df
                  compound_structure_string  test_value
0  N#Cc1cc(Cl)cc(Oc2c(Cl)ccc3c2c(Cl)nn3Cc2n[nH]c3ncccc23)c1        7.92
1  N#Cc1cc(Cl)cc(Oc2c(Cl)ccc3c2nnn3CC(=O)OCc2ccccc2)c1        7.92

Enquiry: Reported pIC50 for N#Cc1cc(Cl)cc(Oc2c(Cl)ccc3c2nnn3Cc2nnc(-c3ccccc3)o2)c1 : what is it?
Return: 8.00
